Tested on: BT-549 breast
Assay: NCI-60 one-dose screen, 48 h (100 = growth as untreated, 0 = no growth, -100 = all killed)
Details: 10 µM
This is part of a sample that, as a whole, favours compounds with a hit. Of some 83,000 tested, about 20% had one in any assay.
Below is a list of entries, each paired with its recorded growth value.
Respond with the bare value in %.

smilesNotation	scaleUnit	val
C#CCCCN(CCNc1ccnc2cc(Cl)ccc12)C(=O)CCC(=O)O[C@@H]1O[C@@H]2OC3(C)CC[C@H]4[C@H](C)CC[C@@H]([C@H]1C)[C@@]24OO3	%	37.3
O=C(/C=C/c1ccc(F)cc1)c1nc2ccccc2n1Cc1ccc(Br)cc1	%	-78.1
CC[C@]12C=CCN3CC[C@@]4(c5ccc(OC)cc5N(C)[C@H]4[C@@](O)(C(=O)OC)[C@@H]1OC(=O)CCCC[P+](c1ccc(C)cc1)(c1ccc(C)cc1)c1ccc(C)cc1)[C@@H]32	%	-97

## Input For "COCCOCCOCCOc1ccc(-n2cc(CCCN(CCNc3ccnc4cc(Cl)ccc34)C(=O)CCC(=O)O[C@@H]3O[C@@H]4OC5(C)CC[C@H]6[C@H](C)CC[C@@H]([C@H]3C)[C@@]46OO5)nn2)cc1" , what is its reported growth?
## Output 4.88

## Input For "O=C(/C=C/c1ccc(Cl)cc1)c1nc2ccccc2n1Cc1ccc(F)cc1" , what is its reported growth?
## Output 2.95

## Input GET /values?readout=growth&item= "C[C@H]1[C@@H](Oc2ccc(-c3cn(-c4ccnc5cc(Cl)ccc45)nn3)cc2)O[C@@H]2OC3(C)CC[C@H]4[C@H](C)CC[C@@H]1[C@@]24OO3"
## Output 24.9

## Input What measured growth goes with "C#CC[Se]C(=O)c1ccc2n[se]nc2c1" ?
## Output 52.1

---

Tested on: UACC-62 melanoma
Experiment: NCI-60 one-dose screen, 48 h (100 = growth as untreated, 0 = no growth, -100 = all killed)
Conditions: 10 µM
The panel holds about 83,000 compounds, 20% with a hit somewhere; the sample as a whole holds those more often. Calls of active or inactive are those of the source. The calls were made as follows: active = growth percent below 10; inactive = the rest.
growth listing for selected compounds.

smilesNotation	targetOrTestSystem	testReadout	val
C[C@H]1[C@H](OC(=O)CCC(=O)N(CCCc2cn(-c3ccc([N+](=O)[O-])cc3)nn2)CCNc2ccnc3cc(Cl)ccc23)O[C@@H]2OC3(C)CC[C@H]4[C@H](C)CC[C@@H]1[C@@]24OO3	UACC-62 melanoma	growth	39% (inactive)
O=C(/C=C/c1ccccc1)c1nc2ccccc2n1Cc1ccc(F)cc1	UACC-62 melanoma	growth	-39% (active)
C=CC[Se]C(=O)c1ccc(C(=O)[Se]CC=C)s1	UACC-62 melanoma	growth	-22.8% (active)

## Input Fill blank: measured growth of the compound "CC[C@@]12CC(C(=O)OC)=C3Nc4cc5c(cc4[C@@]34CCN(C[C@H]3O[C@H]31)[C@@H]24)[C@@H]1[C@H](O5)[C@@H](O)[C@@]2(CC)CC(C(=O)OC)=C3Nc4cc(OC)ccc4[C@@]34CCN1[C@@H]24" is ____.
## Output 3% (active)

---

Below, each entry is listed alongside its reported growth.
Tested on: IGROV1 ovarian
Experiment: NCI-60 one-dose screen, 48 h (100 = growth as untreated, 0 = no growth, -100 = all killed)
Conditions: 10 µM
About 83,000 compounds went through this panel and 20% of them were active in at least one assay; those are over-represented in the sample as a whole.
Give just the numeric value; % need not be written.

Worked examples follow.
compound	scaleUnit	val
CC1=C(CCC=O)C2=C(C)C3(CC3)[C@@](C)(O)C(=O)C2=C1	%	-79.5
COc1cc2cc(C(=O)N3C[C@@H](CCl)c4c3cc(OC(=O)N3CCN(C)[C@@H]5CSSC[C@@H]53)c3ccccc43)[nH]c2c(OC)c1OC	%	7.55
O=C(NCCCCC(c1ccc(F)cc1)c1ccc(F)cc1)Nc1ccc([N+](=O)[O-])c(C(F)(F)F)c1	%	15.4
CC[C@]12C=CCN3CC[C@@]4(c5ccc(OC)cc5N(C)[C@H]4[C@@](O)(C(=O)OC)[C@@H]1OC(=O)CCCC[P+](c1ccc(C)cc1)(c1ccc(C)cc1)c1ccc(C)cc1)[C@@H]32	%	-91.8
O=C(NC([Se])=NC1CCCCC1)c1ccccc1	%	13.6

## Input Entry under review: "CN(C)CCc1cn(C2CCC2)c2cccc(O)c12" . Reported growth?
## Output 84.2

## Input Please look up its growth: "O=C(/C=C/c1cccc(Br)c1)c1nc2ccccc2n1Cc1ccc(Br)cc1"
## Output -8.02

## Input Need growth of "COC(=O)C[C@](O)(CCC(C)C)C(=O)O[C@@H]1C(OC)=C[C@]23CCCN2CCc2cc4c(cc2[C@H]13)OCO4" , thanks.
## Output -29.3

## Input Tell me the measured growth of "O=C(/C=C/c1ccccc1)c1nc2ccccc2n1Cc1ccc(Br)cc1" , please.
## Output -57.8

## Input Given the compound "CCC[Se]C(=O)c1ccc(C(=O)[Se]CCC)s1" , what is its reported growth?
## Output -67.3

## Input Would you kindly share the measured growth for "CC[C@@]12CC(C(=O)OC)=C3Nc4cc5c(cc4[C@@]34CCN(C[C@H]3O[C@H]31)[C@@H]24)[C@@H]1[C@H](O5)[C@@H](O)[C@@]2(CC)CC(C(=O)OC)=C3Nc4cc(OC)ccc4[C@@]34CCN1[C@@H]24" ?
## Output 2.51

## Input I'd like to know its growth. The compound in question is "C[C@H]1[C@H](OC(=O)CCC(=O)Nc2cnccn2)O[C@@H]2OC3(C)CC[C@H]4[C@H](C)CC[C@@H]1[C@@]24OO3"
## Output 25.7

## Input Can you look up the measured growth of "CC[C@]12C=CCN3CC[C@@]4(c5ccc(OC)cc5N(C)[C@H]4[C@@](O)(C(=O)OC)[C@@H]1OC(=O)CCC[P+](c1ccc(F)cc1)(c1ccc(F)cc1)c1ccc(F)cc1)[C@@H]32" for me?
## Output -15

## Input What value of growth has been recorded for this entry: "CC(=O)Oc1ccccc1C(=O)NC([Se])=NC1CCCCC1"
## Output -46

## Input Quick check: growth of "O=C(/C=C/c1ccc(Cl)cc1)c1nc2ccccc2n1Cc1ccc(F)cc1" ?
## Output 29

## Input Recorded growth for "O=C(/C=C/c1ccco1)c1nc2ccccc2n1Cc1ccc(F)cc1" , please?
## Output 52.5

## Input Find the recorded growth belonging to "COC(=O)C[C@](O)(CCCC(C)C)C(=O)O[C@H]1C(OC)=C[C@@]23CCCN2CCc2cc4c(cc2[C@@H]13)OCO4" and report it.
## Output 8.76

## Input I'd like to know its growth. The compound in question is "CC1=C(CCC=NNC(N)=O)C2=C(C)C3(CC3)[C@@](C)(O)C(=O)C2=C1"
## Output -34

## Input GET /values?readout=growth&item= "CC[C@]12C=CCN3CC[C@@]4(c5ccc(OC)cc5N(C)[C@H]4[C@@](O)(C(=O)OC)[C@@H]1OC(=O)CCC[P+](c1ccc(C)cc1)(c1ccc(C)cc1)c1ccc(C)cc1)[C@@H]32"
## Output -89.5

---

Tested on: 786-0 renal
Test: NCI-60 one-dose screen, 48 h
Settings: 10 µM
Compounds without any hit were thinned out: in the full panel of roughly 83,000, 20% have a hit. Calls of active or inactive are those of the source. How the source made its calls: active means growth percent below 10; inactive means the rest.
Outcome (select one): YES for active, NO for inactive

Examples from the recorded data:
molecule	targetOrTestSystem	classification
C[C@H]1[C@H](OC(=O)CCC(=O)N(CCCc2cn(-c3ccc([N+](=O)[O-])cc3)nn2)CCNc2ccnc3cc(Cl)ccc23)O[C@@H]2OC3(C)CC[C@H]4[C@H](C)CC[C@@H]1[C@@]24OO3	786-0 renal	NO
COC(=O)C[C@](O)(CCC(C)C)C(=O)O[C@@H]1C(OC)=C[C@]23CCCN2CCc2cc4c(cc2[C@H]13)OCO4	786-0 renal	YES
COCCOCCOCCOc1ccc(-n2cc(CCCN(CCNc3ccnc4cc(Cl)ccc34)C(=O)CCC(=O)O[C@@H]3O[C@@H]4OC5(C)CC[C@H]6[C@H](C)CC[C@@H]([C@H]3C)[C@@]46OO5)nn2)cc1	786-0 renal	NO
CCC[Se]C(=O)c1ccc(C(=O)[Se]CCC)s1	786-0 renal	YES
C[C@H]1[C@@H](CC(=O)N[C@@H](Cc2coc3ccccc23)B(O)O)O[C@@H]2OC3(C)CC[C@H]4[C@H](C)CC[C@@H]1[C@@]24OO3	786-0 renal	NO

## Input Record request — test call for O=C([Se]C1C=CCCC1)c1ccc(C(=O)[Se]C2C=CCCC2)s1 (stereo not given)
## Output YES

## Input Identify the outcome logged in this assay for the molecule shown: "COCCOCCOCCOc1ccc(-n2cc(-c3ccc(O[C@H]4O[C@@H]5OC6(C)CC[C@H]7[C@H](C)CC[C@@H]([C@H]4C)[C@@]57OO6)cc3)nn2)cc1"
## Output NO
